Listed here are variants together with their documented yeast fitness.
B1: tRNA (parent)
chain: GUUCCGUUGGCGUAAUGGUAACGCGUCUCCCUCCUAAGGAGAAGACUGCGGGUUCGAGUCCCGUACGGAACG

# Variants of: B1
# assay: yeast fitness relative to wild type (ratio to wild type); higher = fitter; tRNA-Arg(CCU), competitive growth, 37 C, YPD
Fewer inactive variants are shown than the library holds.

Guide cases for yeast fitness, answers given:
# sequenceContent, yeast fitness
measured = [
    ("GUUCCGUUGGCGUAAUGGUAACGCGUCUCCCUCCUACGGAGAAGAUUGCGGGUUCGAGUCCCGUCCGAAACG", "≤ 0.5"),
    ("GUUCCGUUGGAGUAAUGGUAACCCGUCUCCCUUCUAAGGAGAUGCCUGCGGGUUCGAAUCCCGUACGGCACG", "≤ 0.5"),
]

Consider GUUCCGUUGGCGUAAUGGUAACGCGUCUCCCUCCUAAGGAGAAGAUUGCGGGUUCGAGUACCGUACGGUACG . Its measured yeast fitness is 0.57

According to the records, this variant GUUCCGUUGGCGUAAUGGUAACGCGUCUCCCUCCUUAGGAGAAGAAUGCGGGUUCGAGUCCGGUACGGAACG displays yeast fitness of ≤ 0.5

Just so you know, measured yeast fitness for GUUCCGUUGGCGUAACGGUAACGCGUCUCCCUCCUACGGAGAAGACUGCGGGUUGGAGUCCUGUACGGAACG came out at ≤ 0.5
